Numbers sourced from patent US20060115428A1.

target: T1, recombinant fibronectin domain ED-B (His)6 (human, UniProt P02751 1266-1356); assay: SPR (BIAcore), ED-B immobilised on chip, Fab in flow
T1 construct: domain: ED-B; Produced by standard procedures; immobilised on ELISA plates or on the BIAcore chip; also called recombinant ED-B; human ED-B
READOUT: Kd (nM)
Express the result in nM but write the number alone.

>  <BINDER>
MOR02622 (Fab, V domains shown, HuCAL GOLD Fab, VH3/L2) VH: QVQLVESGGGLVQPGGSLRLSCAASGFTFSNYAMTWVRQAPGKGLEWVSGISYKSSSTYYADSVKGRFTISRDNSKNTLYLQMNSLRAEDTAVYYCARGLVTFDNWGQGTLVTVSS VL: DIALTQPASVSGSPGQSITISCTGTSSDGGTYNFVSWYQQHPGKAPKLMIYRVSNRPSGVSNRFSGSKSGNTASLTISGLQAEDEADYYCSSWTHSFTDYVFGGGTKLTVLG

>  <Kd / nM>
21.3

$$$$

The reported Kd of the binder MOR02618 (Fab, V domains shown, HuCAL GOLD Fab, VH3/L3) VH: QVQLVESGGGLVQPGGSLRLSCAASGFTFNNYGMTWVRQAPGKGLEWVSSIYGYGSNTYYADSVKGRFTISRDNSKNTLYLQMNSLRAEDTAVYYCARNYWVFAYWGQGTLVTVSS VL: DIELTQPPSVSVAPGQTARISCSGDNIPGKSVHWYQQKPGQAPVLVIYGKMNRPSGIPERFSGSNSGNTATLTISGTQAEDEADYYCQSYDNFNDSVVFGGGTKLTVLG was 477

The reported Kd of the binder MOR02614 (Fab, V domains shown, HuCAL GOLD Fab, VH3/L1) VH: QVQLVESGGGLVQPGGSLRLSCAASGFTFNNNWMHWVRQAPGKGLEWVSFISGSGSHTYYADSVKGRFTISRDNSKNTLYLQMNSLRAEDTAVYYCARAYDVWGQGTLVTVSS VL: DIVLTQPPSVSGAPGQRVTISCSGSSSNIGFNYVNWYQQLPGTAPKLLIYGNSKRPSGVPDRFSGSKSGTSASLAITGLQSEDEADYYCAMFSPEGVFGGGTKLTVLG was 160

The reported Kd of the binder MOR02611 (Fab, V domains shown, HuCAL GOLD Fab, VH1B/L2) VH: QVQLVQSGAEVKKPGASVKVSCKASGYTFSGSYMHWVRQAPGQGLEWMGIINPASGKTLYAQKFQGRVTMTRDTSISTAYMELSSLRSEDTAVYYCARGLYYRFASWGQGTLVTVSS VL: DIALTQPASVSGSPGQSITISCTGTSSDIGGYHSVSWYQQHPGKAPKLMIYRSNRPSGVSNRFSGSKSGNTASLTISGLQAEDEADYYCAAATGGWVFGGGTNLTVLG was 332
